Tested on: CCRIS mutagenicity, Ames/micronucleus/aberration tests
Experiment: CCRIS mutagenicity studies
Conditions: Test System: AMES SALMONELLA TYPHIMURIUM; Strain/Indicator: TA1535; Metabolic Activation: NONE; Method: STANDARD PLATE
The source made the active and inactive calls. No rule for the calls is given here.
Give one outcome, nothing more. List: active, inactive

Field: example entries. Status: answers known.
>  <Compound>
Cc1ccc2c(c1[N+](=O)[O-])C(=O)c1ccccc1C2=O

>  <Class Name>
inactive

$$$$
>  <Compound>
CC1(C)C(C=C(Cl)Cl)C1C(=O)OCc1cccc(Oc2ccccc2)c1 (stereo not given)

>  <Class Name>
inactive

$$$$
>  <Compound>
Nc1c(C(=O)O)cc([N+](=O)[O-])c2c1C(=O)c1ccccc1C2=O

>  <Class Name>
inactive

$$$$
>  <Compound>
c1ccc2c(CC3CO3)cccc2c1 (stereo not given)

>  <Class Name>
active

$$$$

Turning to the following compound.
Query block: GET /call?item= `O=C1OC2(c3ccccc31)c1cc(I)c(O)c(I)c1Oc1c2cc(I)c(O)c1I` returns the recorded outcome of this test.
Result block: inactive

====

Test system: CCRIS mutagenicity, Ames/micronucleus/aberration tests
Assay: CCRIS mutagenicity studies
Settings: Test System: AMES SALMONELLA TYPHIMURIUM; Strain/Indicator: TA1535; Metabolic Activation: HAMSTER, LIVER, S-9, AROCLOR 1254 (30%); Method: PREINCUBATION
Activity calls are given as the source filed them. How the calls were made is not given here.
Give one outcome, nothing more. List: yes (active), no (inactive)

Field: example entries. Status: answers known.
>  <Compound>
CC(O)C#N (stereo unspecified)

>  <Class Name>
no

$$$$
>  <Compound>
Nc1cc(Cl)ccc1O

>  <Class Name>
yes

$$$$
>  <Compound>
ClC1C(Br)C(Br)C(Br)C(Br)C1Br (stereo unspecified)

>  <Class Name>
no

$$$$
>  <Compound>
O=Cc1c(Cl)cccc1Cl

>  <Class Name>
no

$$$$
>  <Compound>
O=C(O)C1=NN(c2ccc(S(=O)(=O)O)cc2)C(=O)C1N=Nc1ccc(S(=O)(=O)O)cc1.[Al] (stereo unspecified)

>  <Class Name>
no

$$$$

Query block: GET /call?item= `ClC(Cl)(Cl)Cl` returns the recorded outcome of this test.
Result block: no

====

System: CCRIS mutagenicity, Ames/micronucleus/aberration tests
Test: CCRIS mutagenicity studies
Settings: Test System: AMES SALMONELLA TYPHIMURIUM; Strain/Indicator: TA98; Metabolic Activation: NONE; Method: STANDARD PLATE
Active and inactive are the calls of the source. How the calls were made is not given here.
Give one outcome, nothing more. List: t (active), f (inactive)

Field: example entries. Status: answers known.
>  <Compound>
C=Cc1ccc(O)c(C=C)c1

>  <Class Name>
f

$$$$
>  <Compound>
C1CN1c1nc(N2CC2)nc(N2CC2)n1

>  <Class Name>
t

$$$$
>  <Compound>
O=[Si]=O

>  <Class Name>
f

$$$$
>  <Compound>
NC(=O)c1cccc2cccnc12

>  <Class Name>
f

$$$$
>  <Compound>
Nc1ccc(/C=C/C(=O)O)cc1

>  <Class Name>
f

$$$$

Query block: GET /call?item= `CCCCCCCCCCCCCCCCCCCCCCO` returns the recorded outcome of this test.
Result block: f

Query block: What about `Nc1cc2[nH]c3ccccc3c2cc1[N+](=O)[O-]` ?
Result block: f

====

Test system: CCRIS mutagenicity, Ames/micronucleus/aberration tests
Assay: CCRIS mutagenicity studies
Conditions: Test System: AMES SALMONELLA TYPHIMURIUM; Strain/Indicator: TA1538; Metabolic Activation: NONE; Method: STANDARD PLATE
Activity calls are given as the source filed them. No rule for the calls is given here.
Give one outcome, nothing more. List: True (active), False (inactive)

Field: example entries. Status: answers known.
>  <Molecule Smiles>
Cc1cc(-c2ccc(N=Nc3cc(S(=O)(=O)O)c4ccccc4c3N)c(C)c2)ccc1N=Nc1cc(S(=O)(=O)O)c2ccccc2c1N

>  <Class Name>
False

$$$$
>  <Molecule Smiles>
Cc1c(N)cc([N+](=O)[O-])c(N)c1C

>  <Class Name>
True

$$$$
>  <Molecule Smiles>
CCOc1ccc(NC(C)=O)cc1N

>  <Class Name>
False

$$$$
>  <Molecule Smiles>
CC(=O)N(O)c1ccc2c(c1)Cc1ccccc1-2

>  <Class Name>
True

$$$$

Query block: GET /call?item= `CC[C@@]1(O)C[C@H](O)c2c(cc3c(c2O)C(=O)c2c(O)cccc2C3=O)[C@H]1C(=O)OC` returns the recorded outcome of this test.
Result block: False

Query block: What about `O=C(Nc1ccc2c(O)c(N=Nc3ccc(N=Nc4ccc(S(=O)(=O)O)cc4)cc3)c(S(=O)(=O)O)cc2c1)c1ccccc1` ?
Result block: False

Query block: What about `CC(C)(C)N(CCO)CCO` ?
Result block: False

Query block: What about `COc1cc(N=Nc2ccccc2)ccc1N=Nc1c(S(=O)(=O)O)cc2ccc(N)cc2c1O` ?
Result block: False

Query block: What about `C[Si](C)(C)O[Si](C)(C)O[Si](C)(C)C` ?
Result block: False

====

Test system: CCRIS mutagenicity, Ames/micronucleus/aberration tests
Experiment: CCRIS mutagenicity studies
Conditions: Test System: AMES SALMONELLA TYPHIMURIUM; Strain/Indicator: TA98; Metabolic Activation: NONE; Method: STANDARD PLATE
The source made the active and inactive calls. No rule for the calls is given here.
Measured Metric: mutagenic call

Sample records with mutagenic call:
>  <Molecule>
CC(=O)n1ncc(Cl)c(Cl)c1=O

>  <Measured Metric>
mutagenic call

>  <Test Value>
inactive; negative

$$$$
>  <Molecule>
O=[N+]([O-])c1cc2c3c(cccc3c1)-c1ccccc1-2

>  <Measured Metric>
mutagenic call

>  <Test Value>
active; positive

$$$$
>  <Molecule>
CC(C)NCC(O)COc1cccc2c1OCC(O)C2 (configuration not stated)

>  <Measured Metric>
mutagenic call

>  <Test Value>
inactive; negative

$$$$
>  <Molecule>
O=C1C=CC(=O)N1

>  <Measured Metric>
mutagenic call

>  <Test Value>
active; positive

$$$$
>  <Molecule>
CCc1cccc(CC)c1N(COC)C(=O)CCl

>  <Measured Metric>
mutagenic call

>  <Test Value>
inactive; negative

$$$$
>  <Molecule>
O=S(=O)(O)OCc1c2ccccc2c2ccc3cccc4ccc1c2c43

>  <Measured Metric>
mutagenic call

>  <Test Value>
active; positive

$$$$
>  <Molecule>
Nc1ncnc2c1ncn2[C@@H]1O[C@H](CO)[C@@H](O)[C@H]1O

>  <Measured Metric>
mutagenic call

>  <Test Value>
inactive; negative

$$$$
>  <Molecule>
CN(C)c1ccc(C(=C2C=CC(=[N+](C)C)C=C2)c2ccc(N(C)C)cc2)cc1

>  <Measured Metric>
mutagenic call

>  <Test Value>
inactive; negative

$$$$
>  <Molecule>
Nc1ccc2cc(S(=O)(=O)O)cc(O)c2c1N=Nc1ccc([N+](=O)[O-])cc1S(=O)(=O)O

>  <Measured Metric>
mutagenic call

>  <Test Value>
inactive; negative

$$$$
>  <Molecule>
Cc1ccc(C)c2c1c1ccccc1n2C

>  <Measured Metric>
mutagenic call

>  <Test Value>
inactive; negative

$$$$

Query block: What mutagenic call value was documented for this molecule, `CCSCCSP(=O)(OC)OC` ?
Result block: inactive; negative

Query block: What about `O=C(O)Nc1ccccc1` ?
Result block: inactive; negative

Query block: What about `OC/C=C/c1ccccc1` ?
Result block: inactive; negative

Query block: What about `NC(=O)CCC(=O)Nc1ccc(Cl)cc1` ?
Result block: inactive; negative

====

Tested on: CCRIS mutagenicity, Ames/micronucleus/aberration tests
Experiment: CCRIS mutagenicity studies
Conditions: Test System: AMES SALMONELLA TYPHIMURIUM; Strain/Indicator: TA98; Metabolic Activation: NONE; Method: STANDARD PLATE
Description: The CCRIS database contains chemical records with carcinogenicity, mutagenicity, tumor promotion, and tumor inhibition test results. It was developed by the National Cancer Institute (NCI). Data are derived from studies cited in primary journals, current awareness tools, NCI reports, and other sources. Test results have been reviewed by experts in carcinogenesis and mutagenesis. CCRIS provides historical information from the years 1985 - 2011. It is no longer updated. […]
Active and inactive are the calls of the source. How the calls were made is not given here.

>  <Molecule Smiles>
CNC(=O)N(C)c1nc2ccccc2s1

>  <mutagenic call>
inactive; negative

$$$$
>  <Molecule Smiles>
Cc1cccc2c1ccc1ccccc12

>  <mutagenic call>
inactive; negative

$$$$
>  <Molecule Smiles>
O=Nc1c(-c2ccc(Cl)cc2)nc2sccn12

>  <mutagenic call>
inactive; negative

$$$$
